The measurements presented in this section are drawn from paper PMC3817407.

Target: T1, ECF16_973
T1 chain: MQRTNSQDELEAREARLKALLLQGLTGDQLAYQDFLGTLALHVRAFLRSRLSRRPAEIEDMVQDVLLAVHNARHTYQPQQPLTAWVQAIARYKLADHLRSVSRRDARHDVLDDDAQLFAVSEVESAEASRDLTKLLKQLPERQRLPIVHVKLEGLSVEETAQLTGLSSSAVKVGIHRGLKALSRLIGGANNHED
Parameter class (string): assigned from measured fold repression. Ranges: lowest: < 3; middle: ≥ 3 and < 5; highest: ≥ 5

AS31_34 (protein) MNKEKLSDHLKSEWKKIDQTANPSIPNQKELLHQLSQMKAEYRKKLLQEIILFVFCALMVVSAAILAFTQAPAVFIVLQVCVLAVLPILIAAEKKRHLGECEVKRG: lowest

Q: State the class of the binder shown: AS02_915 (protein) MEKTGQEWVSASVDGETDRQTLAELAADTDSHAKWQRYHLMGDAMRDELPQAMPLDLSARIAAALEDEPTILAPKVEREATQAPSRAVVVPFMRQLGQYGIAAAVALMAVVGVQNYQSTQDDAPLPVLNTRPLVGTATPVSLQTGPVANQNQGNANDQLLEQRRRINAYLQDHMLQQRLNTGAVVDDNSEVTPIPVNR
Ans: middle

Q: State the class of the binder shown: AS27_4265 (protein) MTGHPDVAEIADLAEGLLPTTRTTEVRQHLESCELCADVYASLTEIQGLLGTLPAPAPMPDDVAARIDAALAAEPPLGIADGTRVSRETSTPADRPAGHARPSSTGPGRKDRRRGGRRRIAVLGAVAAAAAIGIGSVVVSSLTEDSSSGNTAREQQTAIADTFSEGRLKDRVTNLVADGSAENGSRTPRSFGMESENGGETAENHVFKQPTVPECIRKGIGRDDAVIATEPGVYKGREALLVVLPDATNDTQVTAYIVETACVDQPAVGKAKILLEHSYARS
Ans: lowest
